# Lookup of reported melting point keyed by entry

- Compound: "COc1ccc(CSC2(C(=O)O)CCCCC2)cc1"
  melting point: "98 °C"
- Compound: "COc1cc(Nc2ncc(-c3cccc([N+](=O)[O-])c3)o2)ccc1-c1cnco1"
  melting point: "279 to 281 °C"
- Compound: "O=c1oc(-c2ccccc2)cc(O)c1SCC1CC1"
  melting point: "136 to 137 °C"
- Compound: "OC(Cn1cncn1)(c1ccccc1)c1ccccc1"
  melting point: "128 to 129 °C"
- Compound: "C/C(=C(\\C#N)C(N)=S)N1CCC(Cc2ccccc2)CC1"
  melting point: "151 to 154 °C"

Query: melting point; subject: CCNC(C)c1cc(S(N)(=O)=O)sc1S(=O)(=O)CC (centres undefined)
135 to 138 °C

Query: melting point; subject: CCCOc1ccc(CCC(=O)N2CCOCC2)cc1-c1nc2c(c(C)nn2CCC)c(=O)[nH]1
132 to 133 °C

Query: melting point; subject: C=C1C[C@]2(C)C(=O)CC[C@H]2[C@@H]2CCC3=CC(=O)CC[C@]3(C)[C@@H]12
157 to 160 °C

Query: melting point; subject: COc1cccc(-c2cn(N=Cc3ccccc3)c(N)n2)c1
170 to 171 °C

Value source: a melting point compilation (Tetko et al.; mined from patent text by program, amines drawn as free bases though some values may be those of a salt)
